Reference for the values: the supplement of paper PMC11555231

tested.system: PADI4, Q9UM07
Sequence (Q9UM07 whole entry): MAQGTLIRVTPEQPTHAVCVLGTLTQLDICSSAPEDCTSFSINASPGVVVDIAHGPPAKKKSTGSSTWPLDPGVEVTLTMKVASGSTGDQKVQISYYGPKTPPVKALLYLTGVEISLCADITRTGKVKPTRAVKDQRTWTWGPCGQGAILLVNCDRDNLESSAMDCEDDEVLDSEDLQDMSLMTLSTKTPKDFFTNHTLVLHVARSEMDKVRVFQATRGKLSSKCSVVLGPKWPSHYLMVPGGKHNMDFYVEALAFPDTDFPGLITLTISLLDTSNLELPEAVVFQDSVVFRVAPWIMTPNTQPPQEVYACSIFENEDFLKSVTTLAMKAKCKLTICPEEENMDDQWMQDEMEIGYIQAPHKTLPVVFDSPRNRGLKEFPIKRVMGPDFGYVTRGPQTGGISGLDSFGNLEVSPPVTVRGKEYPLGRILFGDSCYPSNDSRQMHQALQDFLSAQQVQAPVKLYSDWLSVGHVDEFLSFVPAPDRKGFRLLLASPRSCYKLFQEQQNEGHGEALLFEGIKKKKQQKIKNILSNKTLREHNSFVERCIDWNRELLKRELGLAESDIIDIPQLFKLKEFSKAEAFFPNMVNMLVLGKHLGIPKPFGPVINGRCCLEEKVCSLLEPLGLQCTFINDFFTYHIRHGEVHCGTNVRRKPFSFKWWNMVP
experiment: log2 enrichment score relative to parent PADI4_3 peptide (binding to PADI4); higher = tighter binding than parent
measurement.setup: CaCl2: 10 mM
parameter.measured: log2 enrichment score
Reply with just the number.

Q. Sample YRDHHYRSPKYCG [PADI4_3_H8S H8S] — what was its log2 enrichment score?
A. -2.81

Q. # get_value(readout='log2 enrichment score', item= YREHHYRHPKYCG [PADI4_3_D3E D3E] )
A. -2.84

Q. Dear colleague, I am looking for the recorded log2 enrichment score of the following binder: YRDNHYRHPKYCG [PADI4_3_H4N H4N]
A. -2.71

Q. Bench note: what log2 enrichment score did YRDHFYRHPKYCG [PADI4_3_H5F H5F] show?
A. -4.31
